assay system: ΔN-PrgE (Enterococcus faecalis (plasmid pCF10), UniProt D1LHE9 13-144, del1-12)
measurement protocol: fluorescence anisotropy; 50 mM NaCl; 20 mM Hepes pH 7.5, 50 or 100 mM NaCl, 10 nM FITC-DNA, 0-20 uM protein, 30 min at RT
experimental setup: protein: recombinant; tags: C-terminal 10xHis removed with 3C (PreScission) protease; label: 5' FITC on strand 1; blunt
endpoint label: Kd (µM)

{"binder": "60-mer dsDNA (dsDNA) DNA 1: CAGTGACAGTCTCCACGGTGAAGCAGTCGTACCTCTTGACGCATGAATAGATATATGTTA DNA 2: TAACATATATCTATTCATGCGTCAAGAGGTACGACTGCTTCACCGTGGAGACTGTCACTG", "endpoint result": 5.56}
{"binder": "30-mer dsDNA (dsDNA) DNA 1: CAGTGACAGTCTCCACGGTGAAGCAGTCGT DNA 2: ACGACTGCTTCACCGTGGAGACTGTCACTG", "endpoint result": 4.39}
